Entries below carry reported pIC50 on PAK4 (Homo sapiens, UniProt O96013).
Sequence (O96013 whole entry): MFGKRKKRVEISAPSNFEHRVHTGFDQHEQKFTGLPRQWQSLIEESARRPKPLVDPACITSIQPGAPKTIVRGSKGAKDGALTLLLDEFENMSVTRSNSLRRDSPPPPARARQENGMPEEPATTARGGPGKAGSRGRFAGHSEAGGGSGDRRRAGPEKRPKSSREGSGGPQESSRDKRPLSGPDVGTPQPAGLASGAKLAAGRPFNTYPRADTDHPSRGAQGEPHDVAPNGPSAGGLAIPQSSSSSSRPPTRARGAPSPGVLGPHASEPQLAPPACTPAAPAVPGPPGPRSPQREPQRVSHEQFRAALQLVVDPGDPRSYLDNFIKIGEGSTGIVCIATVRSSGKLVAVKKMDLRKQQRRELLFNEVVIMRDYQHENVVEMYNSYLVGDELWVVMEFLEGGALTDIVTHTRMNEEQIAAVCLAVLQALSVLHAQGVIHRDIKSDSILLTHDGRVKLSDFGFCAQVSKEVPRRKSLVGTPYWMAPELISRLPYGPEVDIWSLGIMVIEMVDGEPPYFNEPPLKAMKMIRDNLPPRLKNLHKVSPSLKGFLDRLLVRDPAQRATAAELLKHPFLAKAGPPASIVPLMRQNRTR
pIC50: −log10 of the molar value.

[
  {
    "compound": "CN1CCN(c2ccc(Nc3ncc4ccc(=O)n([C@H]5CCCc6ccccc65)c4n3)cc2)CC1 [Compound 12]",
    "pIC50": "5.00 to 6.00"
  },
  {
    "compound": "CN1CCN(c2ccc(Nc3ncc4ccc(=O)n(Cc5c(F)cccc5Br)c4n3)cc2)CC1 [Compound 79]",
    "pIC50": "> 6.00"
  },
  {
    "compound": "O=c1ccc2cnc(Nc3ccc(N4CCNCC4)c(F)c3)nc2n1Cc1ccccc1C(F)(F)F [Compound 62]",
    "pIC50": "> 6.00"
  }
]

Task: Jot down pIC50 (PAK4 (Homo sapiens, UniProt O96013)) of CN1CCN(c2ccc(Nc3ncc4ccc(=O)n(Cc5ccccc5-c5ccccc5)c4n3)cc2)CC1 [Compound 68] .
Output: 5.00 to 6.00

Task: Jot down pIC50 (PAK4 (Homo sapiens, UniProt O96013)) of Cc1c(F)cccc1Cn1c(=O)ccc2cnc(Nc3ccc(N4CCN(C)CC4)cc3)nc21 [Compound 49] .
Output: 5.00 to 6.00

Task: Jot down pIC50 (PAK4 (Homo sapiens, UniProt O96013)) of NCCNc1ccc(-c2ccnc(Nc3ccc(N4CCNCC4)cc3)n2)cn1 [Compound 111] .
Output: > 6.00

Task: Jot down pIC50 (PAK4 (Homo sapiens, UniProt O96013)) of CN1CCN(c2ccc(Nc3nccc(-c4ccc(NCCN)nc4)n3)cc2)CC1.Cl [Compound 94, hydrochloride] .
Output: > 6.00

---

# tgt: UniProtKB O96013
pIC50: −log10 of the molar value.
measurement.name: pIC50

Examples from the recorded data:
[
  {
    "molecule": "CC(=O)N1CCN(c2ccc(Nc3nccc(-c4ccc(NCCN)nc4)n3)cc2)CC1",
    "tgt": "UniProtKB O96013",
    "pIC50": "> 6.00"
  },
  {
    "molecule": "CN1CCN(c2ccc(N(C)c3nccc(-c4ccc(NCCN)nc4)n3)cc2)CC1",
    "tgt": "UniProtKB O96013",
    "pIC50": "< 5.00"
  },
  {
    "molecule": "COc1cc(Nc2nccc(-c3ccc(NCCN)nc3)n2)cc(OC)c1OC",
    "tgt": "UniProtKB O96013",
    "pIC50": "> 6.00"
  },
  {
    "molecule": "CN1CCN(c2ccc(Nc3ncc4ccc(=O)n(Cc5c(Cl)cccc5Cl)c4n3)cc2)CC1",
    "tgt": "UniProtKB O96013",
    "pIC50": "> 6.00"
  }
]

Now let's try a different one.
Task: Jot down pIC50 (UniProtKB O96013) of "CCCNc1ccc(-c2ccnc(Nc3ccc(N4CCN(C)CC4)cc3)n2)cn1" .
Output: 5.00 to 6.00
